Origin of values: ChEMBL document CHEMBL1125213

# Tested On: Adenosine A2 receptor (Rattus norvegicus, UniProt P29276+P30543)
# Protocol Description: Binding affinity against adenosine A2 receptor in rat striatum by using [3H]NECA as a radioligand
# Type: tissue-based
Documented log10 Ki across a set of molecules
Parameter Measured: log10 Ki (log10 of the value in µM)

[
  {
    "Molecule": "CC[C@@H](Nc1ncnc2c1ncn2-c1ccccc1)c1ccccc1",
    "Tested On": "Adenosine A2 receptor (Rattus norvegicus, UniProt P29276+P30543)",
    "log10 Ki": 1.18
  },
  {
    "Molecule": "CC[C@H](Nc1ncnc2c1ncn2-c1ccccc1)c1ccccc1",
    "Tested On": "Adenosine A2 receptor (Rattus norvegicus, UniProt P29276+P30543)",
    "log10 Ki": 1.26
  },
  {
    "Molecule": "Cn1cnc2c(NC3CCCC3)nc(Cl)nc21",
    "Tested On": "Adenosine A2 receptor (Rattus norvegicus, UniProt P29276+P30543)",
    "log10 Ki": 0.97
  },
  {
    "Molecule": "CCn1cnc2c(N)ncnc21",
    "Tested On": "Adenosine A2 receptor (Rattus norvegicus, UniProt P29276+P30543)",
    "log10 Ki": 0.94
  },
  {
    "Molecule": "CCn1cnc2c(NC3CCCC3)ncnc21",
    "Tested On": "Adenosine A2 receptor (Rattus norvegicus, UniProt P29276+P30543)",
    "log10 Ki": 1.23
  },
  {
    "Molecule": "Nc1ncnc2c1ncn2C1CCCC1",
    "Tested On": "Adenosine A2 receptor (Rattus norvegicus, UniProt P29276+P30543)",
    "log10 Ki": 0.91
  },
  {
    "Molecule": "Cn1cnc2c(N)nc(Cl)nc21",
    "Tested On": "Adenosine A2 receptor (Rattus norvegicus, UniProt P29276+P30543)",
    "log10 Ki": 1.04
  },
  {
    "Molecule": "c1ccc(-n2cnc3c(NC4CCCC4)ncnc32)cc1",
    "Tested On": "Adenosine A2 receptor (Rattus norvegicus, UniProt P29276+P30543)",
    "log10 Ki": 1.90
  },
  {
    "Molecule": "CC[C@H](Nc1nc(Cl)nc2c1ncn2C)c1ccccc1",
    "Tested On": "Adenosine A2 receptor (Rattus norvegicus, UniProt P29276+P30543)",
    "log10 Ki": 1.08
  },
  {
    "Molecule": "Cn1cnc2c(NC3CCCCC3)ncnc21",
    "Tested On": "Adenosine A2 receptor (Rattus norvegicus, UniProt P29276+P30543)",
    "log10 Ki": 1.11
  },
  {
    "Molecule": "c1nc(NC2CCCC2)c2ncn(C3CCCC3)c2n1",
    "Tested On": "Adenosine A2 receptor (Rattus norvegicus, UniProt P29276+P30543)",
    "log10 Ki": 1.28
  },
  {
    "Molecule": "Cn1cnc2c(Nc3ccccc3)ncnc21",
    "Tested On": "Adenosine A2 receptor (Rattus norvegicus, UniProt P29276+P30543)",
    "log10 Ki": 1.83
  },
  {
    "Molecule": "Nc1ncnc2c1ncn2C1CCCO1 (stereo not given)",
    "Tested On": "Adenosine A2 receptor (Rattus norvegicus, UniProt P29276+P30543)",
    "log10 Ki": 1.36
  },
  {
    "Molecule": "CC[C@@H](Nc1ncnc2c1ncn2C)c1ccccc1.Cl",
    "Tested On": "Adenosine A2 receptor (Rattus norvegicus, UniProt P29276+P30543)",
    "log10 Ki": 1.74
  },
  {
    "Molecule": "Nc1ncnc2c1ncn2-c1ccccc1",
    "Tested On": "Adenosine A2 receptor (Rattus norvegicus, UniProt P29276+P30543)",
    "log10 Ki": 1.58
  },
  {
    "Molecule": "c1ccc(Nc2ncnc3c2ncn3-c2ccccc2)cc1",
    "Tested On": "Adenosine A2 receptor (Rattus norvegicus, UniProt P29276+P30543)",
    "log10 Ki": 2.05
  },
  {
    "Molecule": "Cn1cnc2c(NC3CCCC3)ncnc21",
    "Tested On": "Adenosine A2 receptor (Rattus norvegicus, UniProt P29276+P30543)",
    "log10 Ki": 1.04
  },
  {
    "Molecule": "Cn1cnc2c(N)ncnc21",
    "Tested On": "Adenosine A2 receptor (Rattus norvegicus, UniProt P29276+P30543)",
    "log10 Ki": 1.18
  },
  {
    "Molecule": "Nc1ncnc2c1ncn2CCO",
    "Tested On": "Adenosine A2 receptor (Rattus norvegicus, UniProt P29276+P30543)",
    "log10 Ki": 1.66
  },
  {
    "Molecule": "CC[C@H](Nc1ncnc2c1ncn2C)c1ccccc1.Cl",
    "Tested On": "Adenosine A2 receptor (Rattus norvegicus, UniProt P29276+P30543)",
    "log10 Ki": 1.92
  },
  {
    "Molecule": "c1nc(NC2CCCC2)c2ncn(C3CCCO3)c2n1 (stereo not given)",
    "Tested On": "Adenosine A2 receptor (Rattus norvegicus, UniProt P29276+P30543)",
    "log10 Ki": 1.59
  },
  {
    "Molecule": "Cn1cnc2c(Nc3ccccc3)nc(Cl)nc21",
    "Tested On": "Adenosine A2 receptor (Rattus norvegicus, UniProt P29276+P30543)",
    "log10 Ki": 1.49
  },
  {
    "Molecule": "OCCn1cnc2c(NC3CCCC3)ncnc21",
    "Tested On": "Adenosine A2 receptor (Rattus norvegicus, UniProt P29276+P30543)",
    "log10 Ki": 1.67
  },
  {
    "Molecule": "CC[C@@H](Nc1nc(Cl)nc2c1ncn2C)c1ccccc1",
    "Tested On": "Adenosine A2 receptor (Rattus norvegicus, UniProt P29276+P30543)",
    "log10 Ki": 0.83
  },
  {
    "Molecule": "CCn1cnc2c(NC3CCCCC3)ncnc21",
    "Tested On": "Adenosine A2 receptor (Rattus norvegicus, UniProt P29276+P30543)",
    "log10 Ki": 1.04
  }
]
